Origin of measurements: patent US11312723B2

# EXPERIMENTAL_TARGET: Human FXIIa (Homo sapiens (Human))
# Sequence (P00748 373-615): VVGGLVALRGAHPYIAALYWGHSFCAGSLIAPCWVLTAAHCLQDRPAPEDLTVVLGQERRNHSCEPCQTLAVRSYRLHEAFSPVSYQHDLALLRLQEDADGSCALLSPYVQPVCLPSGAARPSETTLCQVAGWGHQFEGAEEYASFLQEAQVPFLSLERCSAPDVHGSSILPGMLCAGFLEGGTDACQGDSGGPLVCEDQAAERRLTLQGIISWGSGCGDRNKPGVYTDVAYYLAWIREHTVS
# Sequence (P00748 20-372 partner): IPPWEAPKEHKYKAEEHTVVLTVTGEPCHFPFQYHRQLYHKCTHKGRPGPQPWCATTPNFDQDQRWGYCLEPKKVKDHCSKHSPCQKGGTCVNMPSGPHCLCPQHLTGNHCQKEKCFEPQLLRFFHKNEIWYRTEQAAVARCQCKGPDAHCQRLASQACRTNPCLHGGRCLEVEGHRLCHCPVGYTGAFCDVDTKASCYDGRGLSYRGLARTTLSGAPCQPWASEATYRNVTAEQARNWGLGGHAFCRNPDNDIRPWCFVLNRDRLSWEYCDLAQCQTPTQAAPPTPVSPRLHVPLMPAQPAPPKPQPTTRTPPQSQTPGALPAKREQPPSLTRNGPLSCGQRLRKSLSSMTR
pIC50: −log10 of the molar value.
MEASUREMENT_NAME: pIC50

Past entries and their recorded results:
- COMPOUND: "Nc1nn(C(=O)C2CCNc3ccc(F)cc32)c2c1CCN(S(=O)(=O)c1cccnc1)C2 (centres unmarked) [Example 158]"
  TEST_RESULT: 4.43
- COMPOUND: "Cc1cccc2c1NCCC2C(=O)n1nc2c(c1N)CCN(S(C)(=O)=O)C2 (single isomer, unassigned) [Example 35]"
  TEST_RESULT: 7.70
- COMPOUND: "CS(=O)(=O)N1CCc2c(nn(C(=O)C3CCCc4[nH]c(Cl)cc43)c2N)C1 (single isomer, unassigned) [Example 132]"
  TEST_RESULT: 5.52
- COMPOUND: "CC(C)C(=O)N1CCc2c(nn(C(=O)C3CCNc4ccccc43)c2N)C1 (centres unmarked) [Example 121]"
  TEST_RESULT: 6.40
- COMPOUND: "CCC(=O)N1CCc2c(N)nn(C(=O)C3CCNc4ccccc43)c2C1 (centres unmarked) [Example 120]"
  TEST_RESULT: 4.82

(I) CCN1CCc2c(nn(C(=O)[C@@H]3CCNc4ccc(F)cc43)c2N)C1 (single isomer, unassigned) [Example 166]
(II) CCc1cc2c([nH]1)CCCC2C(=O)n1nc2c(c1N)CN(C(=O)OCc1ccccc1)CC2 (centres unmarked) [Example 4]
(III) CS(=O)(=O)N1CCc2c(N)nn(C(=O)C3CCNc4c(Cl)cccc43)c2C1 (centres unmarked) [Example 58]
Q) List these items ordered by pIC50, big to small. The response must list the labels following the requested ordering.
A) II, I, III

(P) Nc1c2c(nn1C(=O)C1CCNc3c(Cl)cccc31)CNCC2 (single isomer, unassigned) [Example 73]
(Q) Nc1nn(C(=O)C2CCNc3ccc(F)cc32)c2c1CCN(S(=O)(=O)c1ccncc1)C2 (centres unmarked) [Example 156]
Q) Hi, I'm comparing P with Q and wondering which one has the bigger number for pIC50. Any idea? Identify your pick by its label.
A) P
